Below, each of the sequences is paired with its reported apparent KD of K4 kissing-loop reporter value.
Tested on: K4 kissing-loop RNA reporter;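 also: bound reporter read as fluorescence of individual clusters on recovered sequencing chips by microscopy, with normalized cluster intensities fitted with a binding model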
experiment: apparent KD of K4 kissing-loop reporter; higher = weaker reporter binding
experimental-parameters: Eterna round: R107; input ligand: FMN 200 uM
reported-endpoint: apparent KD of K4 kissing-loop reporter (nM)

sequence-input	target-desc	reported-endpoint	value
UCCAGCAGUACUGAUACCAGACUGCAUGUAGUGAUGUUGCAUAAGGGCAUAGAUGUCUCAGUCCCUUGGCAGCGGUACUGUUGCA [#09 K4 Theophylline B Same State]	K4 kissing-loop RNA reporter	apparent KD of K4 kissing-loop reporter	379
UUUAACGAGUGAUGUUCGAAGAGUAAUGGUGAGGAUAUCGAUUUUUCGAGAAGGCACCUCGAAGUGAUACGAAAGUAUCGCUUCG [FMN A 5]	K4 kissing-loop RNA reporter	apparent KD of K4 kissing-loop reporter	171
GGCGGCCGCGCGCAAGCGCGGCCGGCCGAUACCAGCGCGACGGCGCGCCCUUGGCAGCGGCGCCGAGUGAUGUUCGGCCUGCCGG [#2 Same State - Theophylline A Attempt #16 (HarryS)]	K4 kissing-loop RNA reporter	apparent KD of K4 kissing-loop reporter	376
CGAAGACUUAUGGAUACCAGCCUAGCAUCAGGUGGUUCAGAGGCAUGCAGUGAUGUUGCAGGCCCUUGGCAGCCAUGGUACUAGA [Xelebi]	K4 kissing-loop RNA reporter	apparent KD of K4 kissing-loop reporter	76
AGACCUCAGUGAUGUUGAGGUAACACUGAUACCAGCGACUUAAUUCGCCCUUGGCAGCAGUCCACCGAGGUAUCUGAUUAGGUCA [#24 K4 Theophylline A Exclusion]	K4 kissing-loop RNA reporter	apparent KD of K4 kissing-loop reporter	171
AGGAUCGAAGAUCCAGCAGUCAAGCAAUACCGAGGACCGGUACGGCCGCCACUCGGAGUGAUGUUCCGAAGACUGCAAAAUAAAA [#SwitchBubble 8]	K4 kissing-loop RNA reporter	apparent KD of K4 kissing-loop reporter	640
GGGAAGGGACACAAGGAGGAACGAAGGGAAGGAGCGCCGGAGGAGGCAGGUAGGUCGCCCAACCAGUGAUGUUGGAAUUUAAUCC [Default title]	K4 kissing-loop RNA reporter	apparent KD of K4 kissing-loop reporter	242
GACCGGCCGACGAGUGAUGUUCGAUGGGAAGGAGCGCGAAGAAAUGCAGGUAGGUCGCCCUAAGUAAUUGAAACGGCCGGAUUAU [2.)]	K4 kissing-loop RNA reporter	apparent KD of K4 kissing-loop reporter	137
UGUGAACAAAAGUAGAGUGGACCACUAUAGCGAGGACCGGUACGGCCGCCACUCGUGCAUGAAUUCAGUGAUGUUGAAAAGAGCU [whbob_EX_Tryp_A_t12]	K4 kissing-loop RNA reporter	apparent KD of K4 kissing-loop reporter	258
AAAAUAAUCCAGUGAUGUUGGUAUACAGAUACCAGCGACGAAAGUCGCCCUUGGCAGCUGUGGACGUACAAAAUAAGUACGUCCU	K4 kissing-loop RNA reporter	apparent KD of K4 kissing-loop reporter	934
AGGAUGUAGUGAUGUUAUAUAAGAAGUAAACGAGGACCGGUACGGCCGCCACUCGAAGCGGCUACUAGCGCGCGCGCGCGCGCGC [ExTryptoA.Ca]	K4 kissing-loop RNA reporter	apparent KD of K4 kissing-loop reporter	298
AGAACUGUCUUGGAUACCAGUGAUGUUGGUAUCUAUGUGUGAGUGCAAAGCGUCCCACAUUGCCCUUGGCAGCUAAGACUGUUCA [Omei KL Theo B Exc A v2]	K4 kissing-loop RNA reporter	apparent KD of K4 kissing-loop reporter	154
